- targetSystem: human recombinant HDAC6 (Homo sapiens)
- Construct: purchased Calbiochem Inc. 382180
- Sequence (Q9UBN7 1-1215): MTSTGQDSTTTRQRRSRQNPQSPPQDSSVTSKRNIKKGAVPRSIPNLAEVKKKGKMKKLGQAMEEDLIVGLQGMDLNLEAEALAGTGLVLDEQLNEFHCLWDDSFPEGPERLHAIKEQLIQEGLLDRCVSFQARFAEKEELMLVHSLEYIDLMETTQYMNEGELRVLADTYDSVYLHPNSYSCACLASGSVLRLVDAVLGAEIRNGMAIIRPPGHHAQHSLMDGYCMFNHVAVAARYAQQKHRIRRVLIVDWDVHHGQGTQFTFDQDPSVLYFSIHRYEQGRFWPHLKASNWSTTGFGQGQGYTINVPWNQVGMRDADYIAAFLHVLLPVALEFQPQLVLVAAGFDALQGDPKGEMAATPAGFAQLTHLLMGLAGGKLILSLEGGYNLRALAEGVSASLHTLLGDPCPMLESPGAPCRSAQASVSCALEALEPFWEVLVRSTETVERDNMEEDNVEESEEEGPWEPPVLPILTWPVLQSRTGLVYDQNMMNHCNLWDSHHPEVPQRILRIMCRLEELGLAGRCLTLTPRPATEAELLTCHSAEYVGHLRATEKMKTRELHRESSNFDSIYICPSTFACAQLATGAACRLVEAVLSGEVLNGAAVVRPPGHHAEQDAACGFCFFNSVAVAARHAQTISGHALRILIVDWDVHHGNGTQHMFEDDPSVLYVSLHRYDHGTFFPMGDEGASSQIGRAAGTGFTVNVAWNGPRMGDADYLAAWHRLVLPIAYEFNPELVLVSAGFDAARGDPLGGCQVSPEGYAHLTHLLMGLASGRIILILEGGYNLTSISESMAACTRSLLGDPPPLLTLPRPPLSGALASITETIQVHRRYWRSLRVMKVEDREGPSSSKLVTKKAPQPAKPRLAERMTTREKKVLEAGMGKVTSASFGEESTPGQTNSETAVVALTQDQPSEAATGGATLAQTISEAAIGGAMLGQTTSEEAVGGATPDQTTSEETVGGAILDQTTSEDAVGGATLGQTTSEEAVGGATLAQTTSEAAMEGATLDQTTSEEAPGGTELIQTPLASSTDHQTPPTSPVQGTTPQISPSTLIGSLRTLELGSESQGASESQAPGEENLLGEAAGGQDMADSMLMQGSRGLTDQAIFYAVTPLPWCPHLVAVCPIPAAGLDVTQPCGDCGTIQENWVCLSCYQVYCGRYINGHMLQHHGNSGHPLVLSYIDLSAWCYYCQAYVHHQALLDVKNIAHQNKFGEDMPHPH
- experiment: In vitro HDAC enzyme activity inhibition assay, HDAC6 (HDAC Fluorimetric Drug Discovery Kit)
- Assay type: biochemical
- conditionLabel: HDAC6 versus HDAC1
Assign True to entries whose HDAC6 Selectivity (fold) meets or exceeds 200 fold; assign False to the rest.

Some solved cases for reference:
INSERT INTO results (compound, categorylabel) VALUES
  ('O=C(C1CCN(C2CC3(CCC3)C2)CC1)N(Cc1cn2ccc(-c3nnc(C(F)F)o3)cc2n1)c1cccc(F)c1 [Compound 4618]', 'True'),
  ('CC(C)c1cccc(Cc2cn3ccc(-c4nnc(C(F)F)o4)cc3n2)c1 [Compound 3594]', 'False'),
  ('FC(F)c1nnc(-c2ccn3cc(COc4ccccc4)nc3c2)o1 [Compound 3719]', 'True'),
  ('Fc1ccc(NCc2cn3ccc(-c4nnc(C(F)F)o4)cc3n2)cc1F [Compound 3671]', 'True'),
  ('CN1CC(C(=O)N(Cc2cn3ccc(-c4nnc(C(F)F)o4)cc3n2)c2ccccc2)C1 [Compound 4158]', 'False'),
  ('O=C(C1CCN(C2COC2)CC1)N(Cc1cn2ccc(-c3nnc(C(F)F)o3)cc2n1)c1ccccc1 [Compound 3783]', 'True'),
  ('CS(=O)(=O)N1CC(C(=O)N(Cc2cn3ccc(-c4nnc(C(F)F)o4)cc3n2)c2ccccc2)C1 [Compound 4173]', 'False'),
  ('CN1CCC(C(=O)N(Cc2cn3ccc(-c4nnc(C(F)F)o4)cc3n2)c2ccccc2)CC1 [Compound 3782]', 'True');

In: Does the reported HDAC6 Selectivity (fold) for O=C(N1CCN(C(=O)C(F)(F)F)CC1)N(Cc1cn2ccc(-c3nnc(C(F)F)o3)cc2n1)c1ccccc1 [Compound 4044] fall at or above the 200 fold mark?
Out: True

In: Does the reported HDAC6 Selectivity (fold) for O=C(C1CN(C2CCC(F)(F)CC2)C1)N(Cc1cn2ccc(-c3nnc(C(F)F)o3)cc2n1)c1cccc(F)c1 [Compound 4196] fall at or above the 200 fold mark?
Out: True
